# Assayed System: T1, Recombinant human CD137/His (human, UniProt Q07011 24-186)
# T1 construct: Analyte of the SPR assay; also called 4-1BB; TNFRSF9; not shown: His tag
# Assay Overview: SPR (Biacore), antibody captured on anti-human Fc, human CD137/His as analyte, 1:1 fit
Listed here: items and their measured koff.
Property: koff (s⁻¹)

>  <Binder>
anti-CD137 antibody MC8 (antibody, V domains shown, Variant of D6 with the same light chain variable domain) VH: QMQLVQSGAEVKKPGASVKVSCKASGYMPDGYYMHWVRQAPGQGLEWMGWINPRTGGTNYAQKFQGRVTITRDTSASTAYMELSSLRSEDTAVYYCAREGAAFRLELDAWGQGTLVTVSS VL: SYELTQPPSVSVAPGKTARITCGGNNIGSKSVHWYQQKPGQAPVLVIYYDSDRPSGIPERFSGSNSGNTATLTISRVEAGDEADYYCQVWDSSSVVFGGGTQLTVL

>  <Property>
koff

>  <Experimental Result>
0.00628

$$$$
>  <Binder>
anti-CD137 antibody MD4 (antibody, V domains shown, Variant of D6 with the same light chain variable domain) VH: QMQLVQSGAEVKKPGASVKVSCKASGYNWTGYYMHWVRQAPGQGLEWMGWINPMAGGTNYAQKFQGRVTITRDTSASTAYMELSSLRSEDTAVYYCAREGWARGVELDMWGQGTLVTVSS VL: SYELTQPPSVSVAPGKTARITCGGNNIGSKSVHWYQQKPGQAPVLVIYYDSDRPSGIPERFSGSNSGNTATLTISRVEAGDEADYYCQVWDSSSVVFGGGTQLTVL

>  <Property>
koff

>  <Experimental Result>
0.0512

$$$$
>  <Binder>
anti-CD137 antibody MSA11 (antibody, V domains shown, Variant of D6 with the same light chain variable domain) VH: QMQLVQSGAEVKKPGASVKVSCKASGYSFTGYYMHWVRQAPGQGLEWMGWVNPKSGGTNYAQKFQGRVTITRDTSASTAYMELSSLRSEDTAVYYCAREGWARRIDLDEWGQGTLVTVSS VL: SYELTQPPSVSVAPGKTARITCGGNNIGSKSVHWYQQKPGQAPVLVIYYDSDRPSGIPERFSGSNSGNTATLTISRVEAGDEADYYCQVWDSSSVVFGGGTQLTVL

>  <Property>
koff

>  <Experimental Result>
0.00631

$$$$
